Biological target: zfSARM1 (Danio rerio)
Sequence (F1QWA8 1-713): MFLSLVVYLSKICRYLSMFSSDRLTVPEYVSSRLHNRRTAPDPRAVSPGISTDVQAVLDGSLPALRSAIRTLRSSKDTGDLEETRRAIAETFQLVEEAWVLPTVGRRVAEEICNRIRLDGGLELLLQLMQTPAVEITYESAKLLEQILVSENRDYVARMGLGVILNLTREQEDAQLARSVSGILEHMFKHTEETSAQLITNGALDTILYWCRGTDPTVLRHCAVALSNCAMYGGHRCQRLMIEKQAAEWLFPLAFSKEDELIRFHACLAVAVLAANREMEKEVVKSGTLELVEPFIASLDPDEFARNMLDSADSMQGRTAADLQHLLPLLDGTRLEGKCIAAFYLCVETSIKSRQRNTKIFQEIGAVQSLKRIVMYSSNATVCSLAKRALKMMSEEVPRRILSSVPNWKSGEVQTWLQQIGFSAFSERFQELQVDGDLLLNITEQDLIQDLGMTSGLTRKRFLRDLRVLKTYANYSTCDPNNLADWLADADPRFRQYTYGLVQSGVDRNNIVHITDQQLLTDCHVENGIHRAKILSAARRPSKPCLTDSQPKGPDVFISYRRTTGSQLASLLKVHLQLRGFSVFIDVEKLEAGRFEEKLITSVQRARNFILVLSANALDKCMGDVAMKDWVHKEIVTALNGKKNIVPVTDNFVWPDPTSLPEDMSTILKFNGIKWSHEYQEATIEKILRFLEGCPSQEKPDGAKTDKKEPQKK
Test: Effect of hSARM1 inhibitors on zfSARM1 NADase activity (ADPR by HPLC)
Conditions: 50 μM NAD+; ADPR production by HPLC
property: pIC50
Keep it numeric: pIC50 is minus log10 of the concentration in mol/L.

What value of pIC50 has been reported for the following molecule? NC(=O)c1cccnc1 [NAM, nicotinamide, reference compound]
3.64

* * *

biological target: hSARM1 (Homo sapiens); construct: hSARM1w.t; (26ERL . . . GPT724) that was not mutated in E642, was also expressed and isolated; 6xHis (N); TEV cleavage site (N); made in house; host or cells: HEK293F suspension cells; test: Determination of IC50 and mode of inhibition of hSARM1 NADase (ADPR by HPLC); type: biochemical; details: 50 μM NAD+; 10 min pre-incubation at room temperature; 10 min at 37° C.
Sequence (Q6SZW1 with tags, fused parts or gaps): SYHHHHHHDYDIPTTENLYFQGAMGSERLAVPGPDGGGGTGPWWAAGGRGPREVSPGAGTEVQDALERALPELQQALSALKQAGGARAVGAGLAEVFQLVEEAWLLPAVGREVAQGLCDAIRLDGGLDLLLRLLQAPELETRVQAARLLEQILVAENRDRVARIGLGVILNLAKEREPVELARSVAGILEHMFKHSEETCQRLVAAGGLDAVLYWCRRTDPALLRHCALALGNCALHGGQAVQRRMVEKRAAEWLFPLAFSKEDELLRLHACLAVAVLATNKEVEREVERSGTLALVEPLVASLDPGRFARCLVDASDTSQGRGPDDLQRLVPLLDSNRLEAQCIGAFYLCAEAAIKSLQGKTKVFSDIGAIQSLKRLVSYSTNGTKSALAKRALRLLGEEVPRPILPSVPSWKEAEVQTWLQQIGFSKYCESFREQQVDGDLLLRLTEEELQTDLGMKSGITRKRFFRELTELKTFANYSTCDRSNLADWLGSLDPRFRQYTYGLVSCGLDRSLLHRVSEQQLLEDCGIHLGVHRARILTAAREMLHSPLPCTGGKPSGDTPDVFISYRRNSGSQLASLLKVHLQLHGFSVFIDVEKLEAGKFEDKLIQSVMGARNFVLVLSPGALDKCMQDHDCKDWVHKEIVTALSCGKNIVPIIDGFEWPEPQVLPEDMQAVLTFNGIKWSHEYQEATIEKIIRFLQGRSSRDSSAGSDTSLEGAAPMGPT
pIC50: −log10 of the molar value.
The following molecules are listed with their measured pIC50 values.

# chemSmiles, property, testValue
data = [
    ("CCOC(=O)Cn1sc2nc(C)cc(C)c2c1=O", "pIC50", "≥ 5.00"),
]

Kindly consider the entry below.
Using the record for O=C(c1ccccn1)N1C[C@H]2OC(=O)N(CCCN3CCOCC3)[C@H]2C1 , report its pIC50.
≥ 5.00

* * *

biological target: zfSARM1 (Danio rerio, UniProt F1QWA8); assay: Effect of hSARM1 inhibitors on zfSARM1 NADase activity (ADPR by HPLC); type: biochemical, Zebrafish; conditions: 50 μM NAD+; ADPR production by HPLC; read-out: EC50, activation of zfSARM1 NADase
property: EC50 (µM)
Give a bare numeral; the unit µM is implied.

Need EC50, item O=NN1CCCCC1 [TK138]
2.7
